Assay: Measurement of log P values by HPLC on reversed phase columns (methods [a] pH 2.3, [b] pH 2.7, [c] pH 7.8)
Type: physicochemical
Conditions: method [b], HPLC reversed phase, pH 2.7
REPORTED_PROPERTY: logP

Known results for molecules:
O=C(NC1CC1c1ccccc1C(F)(F)F)c1ccccc1I (stereo not drawn) | 3.31^[b]
Cn1nc(C(F)F)c(C(=O)NC2CCCCC2c2ccccc2)c1F (stereo not drawn) [Example 181] | 3.13^[b]
Cn1nc(C(F)F)c(C(=S)N(C2CC2)C2CCCCC2(C)c2ccccc2)c1F (stereo not drawn) | 5.01^[b]
Cc1cc(C(=O)N(C2CC2)C2CCCCC2c2ccccc2Cl)c(C)o1 (stereo not drawn) | 5.17^[b]
Cc1nc(C(F)F)c(C(=O)N(C2CC2)C2CCCC2c2ccc(Cl)cc2Cl)s1 (stereo not drawn) | 4.85^[b]
O=C(NC1CC1c1ccc(Cl)cc1Cl)c1sccc1Cl (stereo not drawn) | 4.08^[b]

Any idea what its logP is? The molecule is O=C(NC1CC1c1ccc(Cl)cc1)c1ccccc1I (stereo not drawn) 3.24^[b]

Let us now turn to Cn1nc(C(F)(F)F)c(C(=O)NC2CC2c2ccccc2)c1F (stereo not drawn) 2.63^[b]

Let us now turn to Cn1nc(C(F)F)c(C(=O)NC2CCCCC2c2ccccc2)c1Cl (stereo not drawn) [Example 183] 3.51^[b]
